STUDY SYSTEM: T1, cynomolgus monkey C-MET His tag, monomeric (cynomolgus monkey, UniProt A0M8R7 25-932 (Papio anubis entry))
T1 construct: also called monomeric cyno C-MET; cyCMET
T1 sequence (A0M8R7 25-932 S170N/I621T): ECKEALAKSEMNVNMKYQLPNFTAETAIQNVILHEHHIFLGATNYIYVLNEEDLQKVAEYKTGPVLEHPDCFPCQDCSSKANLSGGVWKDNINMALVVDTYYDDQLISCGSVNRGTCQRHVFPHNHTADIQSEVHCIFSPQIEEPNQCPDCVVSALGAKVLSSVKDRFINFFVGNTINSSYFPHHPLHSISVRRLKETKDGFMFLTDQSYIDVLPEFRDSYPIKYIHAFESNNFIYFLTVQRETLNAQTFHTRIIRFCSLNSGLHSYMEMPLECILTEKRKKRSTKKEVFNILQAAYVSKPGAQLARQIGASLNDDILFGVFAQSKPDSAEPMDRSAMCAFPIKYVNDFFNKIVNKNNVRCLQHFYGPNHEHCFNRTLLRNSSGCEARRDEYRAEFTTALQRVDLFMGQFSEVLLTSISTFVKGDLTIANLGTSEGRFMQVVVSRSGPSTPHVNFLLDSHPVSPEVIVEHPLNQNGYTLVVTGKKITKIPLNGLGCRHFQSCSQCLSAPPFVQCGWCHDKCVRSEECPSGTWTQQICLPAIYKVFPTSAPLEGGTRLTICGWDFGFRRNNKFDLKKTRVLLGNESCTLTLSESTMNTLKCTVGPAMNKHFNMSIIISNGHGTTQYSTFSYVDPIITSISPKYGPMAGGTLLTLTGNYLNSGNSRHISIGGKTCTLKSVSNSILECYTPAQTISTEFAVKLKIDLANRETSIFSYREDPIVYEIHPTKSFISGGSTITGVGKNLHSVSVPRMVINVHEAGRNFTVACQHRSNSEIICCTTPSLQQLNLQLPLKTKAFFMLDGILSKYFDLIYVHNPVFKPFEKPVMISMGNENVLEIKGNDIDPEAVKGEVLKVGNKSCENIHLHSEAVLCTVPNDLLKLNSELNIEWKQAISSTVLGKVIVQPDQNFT
MEASUREMENT DESCRIPTION: SPR Biacore, IgG captured, monomeric C-MET-His analyte
MEASURED PROPERTY: kon (M⁻¹ s⁻¹)
Field format: number, assumed M⁻¹ s⁻¹, no unit text.

As a guide, the following entries are already answered.
binder="MH6 (antibody, IgG4, V domains shown) VH: QVQLVQSGAEVKKPGASVKVSCKASGYTFTSYTMHWVRQAPGQGLEWMGWINPSGGSTSYAQKFQGRVTMTRDTSTSTVYMELSSLRSEDTAVYYCARQEITTEFDYWGQGTLVTVSS VL: EIVLTQSPGTLSLSPGERATLSCRASQSVSSYAQSYLHWYQQKPGQAPRLLIYRGSTRETGIPDRFSGSGSGTDFTLTISRLEPEDFAVYYCQQYGSSPLTFGGGTKVEIK" units_of_measure="M⁻¹ s⁻¹" numeric_value=160000
binder="08B12 (antibody, IgG4, V domains shown) VH: QVQLVQSGAEVKKPGASVKVSCKASGYIFTAYSMHWVRQAPGQGLEWMGWIKPNNGSTNYAQKFQGRVTMTRDTSTSTVYMELSSLRSEDTAVYYCARTEITTEFDYWGQGTLVTVSS VL: EIVLTQSPGTLSLSPGERATLSCRASQSVDSYANSYLHWYQQKPGQAPRLLIYRGSTRETGIPDRFSGSGSGTDFTLTISRLEPEDFAVYYCQQSKSDPLTFGGGTKVEIK" units_of_measure="M⁻¹ s⁻¹" numeric_value=54000
binder="MH5 (antibody, IgG4, V domains shown) VH: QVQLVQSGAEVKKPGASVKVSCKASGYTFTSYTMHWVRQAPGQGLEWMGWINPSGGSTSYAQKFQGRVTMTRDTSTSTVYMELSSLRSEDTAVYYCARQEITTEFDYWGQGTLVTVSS VL: EIVLTQSPGTLSLSPGERATLSCRASQSVSSYAQSYLHWYQQKPGQAPRLLIYRGSTRETGIPDRFSGSGSGTDFTLTISRLEPEDFAVYYCQQSGSSPLTFGGGTKVEIK" units_of_measure="M⁻¹ s⁻¹" numeric_value=170000
binder="MH7 (antibody, human IgG4, V domains shown) VH: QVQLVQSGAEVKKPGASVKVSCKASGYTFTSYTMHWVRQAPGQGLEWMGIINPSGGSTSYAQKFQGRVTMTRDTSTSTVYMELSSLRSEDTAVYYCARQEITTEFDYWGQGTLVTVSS VL: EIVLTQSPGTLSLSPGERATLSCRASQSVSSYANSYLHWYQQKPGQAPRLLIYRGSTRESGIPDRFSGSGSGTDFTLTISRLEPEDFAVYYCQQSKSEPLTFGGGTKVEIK" units_of_measure="M⁻¹ s⁻¹" numeric_value=270000

Proceed to the following item.
Reported kon of MH7-1 (antibody, human IgG4, V domains shown) VH: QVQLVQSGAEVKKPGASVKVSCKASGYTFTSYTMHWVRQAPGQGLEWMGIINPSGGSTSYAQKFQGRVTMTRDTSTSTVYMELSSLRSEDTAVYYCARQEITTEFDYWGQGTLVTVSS VL: EIVLTQSPGTLSLSPGERATLSCRASQSVSSYANSYLHWYQQKPGQAPRLLIYRGSTRETGIPDRFSGSGSGTDFTLTISRLEPEDFAVYYCQQSKSEPLTFGGGTKVEIK : 181000
